Origin of measurements: paper PMC11407758

tested on: p53 protein; assay: Western blot, p53 protein levels; type: cell-based, human; conditions: engineered HCT116-R175H cells, 24 h
readoutName: exogenous mutant p53 R175H protein level

>>> testresult("COc1ccc(/C=C/c2nc(NCCCN(C)C)c3ccccc3n2)cc1 [CP-31398]")
"no effects"
>>> testresult("CCc1c(C)[nH]c(/C=C2\\N=C(c3ccc[nH]3)C=C2OC)c1C [PG3]")
"stabilize"
>>> testresult("COc1ccc(C2=N[C@@H](c3ccc(Cl)cc3)[C@@H](c3ccc(Cl)cc3)N2C(=O)N2CCNC(=O)C2)c(OC(C)C)c1 [Nutlin-3a]")
"no effects"
>>> testresult("CCCCCCCCOC(=O)CCc1c(C)[nH]c(/C=C2\\N=C(c3ccc[nH]3)C=C2OC)c1C [PG3-Oc]")
"stabilize"

###

tested on: MRC5 (human lung fibroblast cell with wild-type p53); experiment: Cell viability assay (CellTiterGlo), MRC5 normal cells; type: cell-based; settings: 72 h, read-out: IC50 values, MRC5 (WT)
readoutName: IC50 (µM)

>>> testresult("COc1ccc(/C=C/c2nc(NCCCN(C)C)c3ccccc3n2)cc1 [CP-31398]")
5.92

###

test system: HFF-1 (human foreskin fibroblast cell with wild-type p53); assay: Cell viability assay (CellTiterGlo), HFF-1 normal cells; assay type: cell-based; details: Homo sapiens, HFF-1; 72 h, CellTiterGlo, normal cells; read-out: IC50 values, HFF-l (WT)
Each entry below carries its reported IC50.
readoutName: IC50

>>> testresult("Cc1c2ccncc2c(C)c2c1[nH]c1ccccc12")
"6070 nM"
>>> testresult("CCc1c(C)[nH]c(/C=C2\\N=C(c3ccc[nH]3)C=C2OC)c1C")
"1050 nM"
>>> testresult("CCCCCCCCOC(=O)CCc1c(C)[nH]c(/C=C2\\N=C(c3ccc[nH]3)C=C2OC)c1C")
"306 nM"

###

test system: HCT116 (WT); assay: Cell viability assay (CellTiterGlo), HCT116 WT; format: cell-based, human; details: 72 h, CellTiterGlo
pIC50: −log10 of the molar value.
readoutName: pIC50

>>> testresult("COCC1(CO)C(=O)C2CCN1CC2 (stereo not shown)")
4.48

###

test system: p53 protein; test: Western blot, p53 protein levels; type: cell-based, human; details: HT29, 24 h
readoutName: endogenous mutant p53 R273H protein level

>>> testresult("COc1ccc(/C=C/c2nc(NCCCN(C)C)c3ccccc3n2)cc1 [CP-31398]")
"stabilizes"
>>> testresult("CCc1c(C)[nH]c(/C=C2\\N=C(c3ccc[nH]3)C=C2OC)c1C [PG3]")
"no effects on stability"
>>> testresult("COCC1(CO)C(=O)C2CCN1CC2 (stereo not drawn) [APR-246]")
"stabilizes"
>>> testresult("CCCCCCCCOC(=O)CCc1c(C)[nH]c(/C=C2\\N=C(c3ccc[nH]3)C=C2OC)c1C [PG3-Oc]")
"no effects on stability"

###

Each entry below carries its reported pIC50.
test system: HCT116 (P53−/−); assay: Cell viability assay (CellTiterGlo), HCT116 p53-/-; type: cell-based, human; settings: Homo sapiens, HCT-116; 72 h, CellTiterGlo
pIC50: −log10 of the molar value.
readoutName: pIC50

>>> testresult("CCc1c(C)[nH]c(/C=C2\\N=C(c3ccc[nH]3)C=C2OC)c1C")
7.28
>>> testresult("Cc1c2ccncc2c(C)c2c1[nH]c1ccccc12")
5.62
>>> testresult("CCCCCCCCOC(=O)CCc1c(C)[nH]c(/C=C2\\N=C(c3ccc[nH]3)C=C2OC)c1C")
7.21
